# ASSAY TARGET: human mGluR2 receptor (Homo sapiens)
# Construct: expressed in transfected cells; host or cells: CHO cells
# Sequence (Q14416 19-872): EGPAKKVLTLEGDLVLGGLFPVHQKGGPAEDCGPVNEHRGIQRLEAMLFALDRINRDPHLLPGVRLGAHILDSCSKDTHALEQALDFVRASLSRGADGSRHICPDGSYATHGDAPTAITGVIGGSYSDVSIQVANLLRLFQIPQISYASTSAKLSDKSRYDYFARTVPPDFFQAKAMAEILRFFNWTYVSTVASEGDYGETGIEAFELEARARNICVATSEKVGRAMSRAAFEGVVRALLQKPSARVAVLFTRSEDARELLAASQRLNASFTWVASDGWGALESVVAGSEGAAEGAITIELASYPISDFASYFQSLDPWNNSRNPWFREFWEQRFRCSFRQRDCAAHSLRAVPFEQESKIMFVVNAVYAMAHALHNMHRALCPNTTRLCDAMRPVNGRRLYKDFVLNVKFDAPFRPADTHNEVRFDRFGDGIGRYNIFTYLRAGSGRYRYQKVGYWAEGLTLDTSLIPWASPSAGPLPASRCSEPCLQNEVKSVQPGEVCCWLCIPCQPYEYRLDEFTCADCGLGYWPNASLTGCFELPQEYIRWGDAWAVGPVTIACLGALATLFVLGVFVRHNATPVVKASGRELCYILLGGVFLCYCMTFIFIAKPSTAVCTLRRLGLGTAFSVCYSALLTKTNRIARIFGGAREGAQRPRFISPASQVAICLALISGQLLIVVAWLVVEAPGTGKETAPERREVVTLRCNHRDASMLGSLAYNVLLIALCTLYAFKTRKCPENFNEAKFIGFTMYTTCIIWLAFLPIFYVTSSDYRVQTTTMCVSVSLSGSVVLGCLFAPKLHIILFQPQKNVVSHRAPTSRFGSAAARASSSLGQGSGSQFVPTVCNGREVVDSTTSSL
# ASSAY PROTOCOL: [35S]GTPγS binding assay (PAM assay) using membranes from CHO cells transfected with the human mGluR2 receptor
# Format: biochemical
# CONDITION NOTES: in presence of mGluR2 agonist glutamate at a predetermined EC25 concentration; averages of duplicate values of 11-concentration response curves; error about 0.3 log-units; read-out: GTPgS-hR2 PAM pEC50 (converted)
The following compounds are listed with their measured EC50 values.

| COMPOUND | ASSAY TARGET | EC50 / nM |
| --- | --- | --- |
| CCCCn1ccc(-c2ccc3c(ccn3[C@H]3CC[C@@](C)(O)CC3)c2)c(Cl)c1=O [Compound 6] | human mGluR2 receptor (Homo sapiens) | 302 |
| CCCCn1ccc(-c2ccc3c(ccn3[C@H]3CC[C@H](O)CC3)c2)c(Cl)c1=O [Compound 3] | human mGluR2 receptor (Homo sapiens) | 102 |
| CCCCn1ccc(-c2ccc3c(ccn3[C@H]3CC[C@@H](O)CC3)c2)c(Cl)c1=O [Compound 4] | human mGluR2 receptor (Homo sapiens) | 148 |
| CCCCn1ccc(-c2ccc3c(ccn3[C@H]3CC[C@](C)(O)CC3)c2)c(Cl)c1=O [Compound 5] | human mGluR2 receptor (Homo sapiens) | 75.9 |
| CC(C)CCn1ccc(-c2ccc3c(ccn3[C@H]3CC[C@H](O)CC3)c2)c(Cl)c1=O [Compound 7] | human mGluR2 receptor (Homo sapiens) | 89.1 |
| CCCCn1ccc(-c2ccc3c(ccn3C3CCOCC3)c2)c(Cl)c1=O [Compound 9] | human mGluR2 receptor (Homo sapiens) | 309 |
| O=c1c(Cl)c(-c2ccc3c(ccn3[C@H]3CC[C@H](O)CC3)c2)ccn1CC1CC1 [Compound 8] | human mGluR2 receptor (Homo sapiens) | 302 |
| CCCCn1ccc(-c2ccc3c(c2)OCCN3C2CCOCC2)c(Cl)c1=O [Compound 1] | human mGluR2 receptor (Homo sapiens) | 589 |
